Source: paper PMC9516332

# STUDY SYSTEM: panel of 255 wild-type kinases (Homo sapiens, UniProt Q9UL54)
# Sequence (Q9UL54 whole entry): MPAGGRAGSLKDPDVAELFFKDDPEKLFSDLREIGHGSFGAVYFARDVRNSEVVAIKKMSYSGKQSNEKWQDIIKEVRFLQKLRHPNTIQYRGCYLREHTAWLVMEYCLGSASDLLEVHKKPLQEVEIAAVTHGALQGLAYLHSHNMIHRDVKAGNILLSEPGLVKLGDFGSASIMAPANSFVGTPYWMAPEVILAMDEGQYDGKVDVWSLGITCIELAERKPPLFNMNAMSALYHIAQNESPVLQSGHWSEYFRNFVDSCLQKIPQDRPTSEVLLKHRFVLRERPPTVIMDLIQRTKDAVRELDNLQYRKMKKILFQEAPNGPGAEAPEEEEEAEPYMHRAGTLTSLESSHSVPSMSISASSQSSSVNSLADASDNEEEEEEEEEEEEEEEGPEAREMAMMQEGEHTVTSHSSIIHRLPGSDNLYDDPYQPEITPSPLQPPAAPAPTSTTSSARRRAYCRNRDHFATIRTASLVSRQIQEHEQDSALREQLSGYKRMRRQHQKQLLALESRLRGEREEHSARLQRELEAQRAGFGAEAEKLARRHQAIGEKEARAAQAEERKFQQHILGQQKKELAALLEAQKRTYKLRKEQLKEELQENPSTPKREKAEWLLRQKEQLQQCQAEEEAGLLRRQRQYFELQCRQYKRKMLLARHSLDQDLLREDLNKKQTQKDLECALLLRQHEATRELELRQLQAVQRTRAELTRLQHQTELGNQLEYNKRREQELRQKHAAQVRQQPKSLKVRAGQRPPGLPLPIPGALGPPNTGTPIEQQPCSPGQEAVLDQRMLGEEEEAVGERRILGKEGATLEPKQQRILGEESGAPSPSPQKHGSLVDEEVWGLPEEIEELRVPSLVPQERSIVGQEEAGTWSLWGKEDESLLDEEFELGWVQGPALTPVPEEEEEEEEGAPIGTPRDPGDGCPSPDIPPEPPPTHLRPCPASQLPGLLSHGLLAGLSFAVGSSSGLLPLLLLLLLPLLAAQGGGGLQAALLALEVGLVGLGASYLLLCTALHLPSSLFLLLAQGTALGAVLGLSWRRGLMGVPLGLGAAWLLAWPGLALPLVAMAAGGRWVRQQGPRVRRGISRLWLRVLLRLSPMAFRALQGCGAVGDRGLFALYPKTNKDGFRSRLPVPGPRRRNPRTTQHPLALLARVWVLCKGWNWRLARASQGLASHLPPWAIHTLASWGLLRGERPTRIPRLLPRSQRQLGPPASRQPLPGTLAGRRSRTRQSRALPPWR
# ASSAY COMMENT: Kinase panel profiling at 1 µmol/L (MSA or IMAP), percentage inhibition
# Type: biochemical
# COND: kinase TAOK2; 1 µmol/L single concentration; read-out: %-inhibition at 1 µmol/L, TAOK2
METRIC NAME: inhibition at 1 µM
Your reply should be a number followed by the unit it is expressed in.

Can you share its inhibition at 1 µM? I mean this compound: CCN1CCN(c2ccc(Nc3cc(N(C)C(=O)Nc4c(Cl)c(OC)cc(OC)c4Cl)ncn3)cc2)CC1 [infigratinib] 91%

inhibition at 1 µM lookup needed for Cc1cc(Nc2ncnc3ccc(NC4=NC(C)(C)CO4)cc23)ccc1Oc1ccn2ncnc2c1 [tucatinib] , thanks. 5%

Data request, read-out inhibition at 1 µM, for FC(F)(F)c1ccc(CNc2ccc(Cc3c[nH]c4ncc(Cl)cc34)cn2)cn1 [pexidartinib] 4%

Can you share its inhibition at 1 µM? I mean this compound: Cn1cnc2c(F)c(Nc3ccc(Br)cc3Cl)c(C(=O)NOCCO)cc21 [selumetinib] 3.77%

Param item = O=C(Nc1cnn2ccc(N3CCC[C@@H]3c3cc(F)ccc3F)nc12)N1CC[C@H](O)C1 [larotrectinib] ; retrieve measured inhibition at 1 µM. 3.76%

----------
Please respond with reported IC50 for every item in the list.
# Tested on: 134 cancer cell lines
# ASSAY COMMENT: Cell viability assay (ATPlite, 72 hours), IC50 on cancer cell line panel
# COND: Homo sapiens, T98G, read-out: IC50 in cell proliferation assay, cell line T98G
Write down the numeric answer in µM and omit the unit.

Recorded IC50 for CN1CCN(c2ccc(C(=O)Nc3n[nH]c4ccc(Cc5cc(F)cc(F)c5)cc34)c(NC3CCOCC3)c2)CC1 , please? 5.59

Name the recorded IC50 for Cc1nc(NC(=O)N2CCC[C@H]2C(N)=O)sc1-c1ccnc(C(C)(C)C(F)(F)F)c1 . 7.14

----------
# Test system: 134 cancer cell lines
# ASSAY COMMENT: Cell viability assay (ATPlite, 72 hours), IC50 on cancer cell line panel
# COND: Homo sapiens, NCI-H1975, read-out: IC50 in cell proliferation assay
Provide the reported pIC50 of each item.
By convention, pIC50 is the negative base-10 log of a molar concentration.

What value of pIC50 has been recorded for this entry: COc1cc(N2CCC(N3CCN(C)CC3)CC2)ccc1Nc1ncc(Cl)c(Nc2ccccc2P(C)(C)=O)n1 6.35

# lookup: pIC50 of CCn1c(=O)c(-c2cc(NC(=O)Nc3ccccc3)c(F)cc2Br)cc2cnc(NC)cc21 5.66

Query (molecule): CCN1C(=O)N(c2c(F)c(OC)cc(OC)c2F)Cc2cnc3[nH]c(CN4CCOCC4)cc3c21 ; field requested: pIC50 5.53

----------
# STUDY SYSTEM: panel of 255 wild-type kinases (Homo sapiens)
# Sequence (P54760 16-987): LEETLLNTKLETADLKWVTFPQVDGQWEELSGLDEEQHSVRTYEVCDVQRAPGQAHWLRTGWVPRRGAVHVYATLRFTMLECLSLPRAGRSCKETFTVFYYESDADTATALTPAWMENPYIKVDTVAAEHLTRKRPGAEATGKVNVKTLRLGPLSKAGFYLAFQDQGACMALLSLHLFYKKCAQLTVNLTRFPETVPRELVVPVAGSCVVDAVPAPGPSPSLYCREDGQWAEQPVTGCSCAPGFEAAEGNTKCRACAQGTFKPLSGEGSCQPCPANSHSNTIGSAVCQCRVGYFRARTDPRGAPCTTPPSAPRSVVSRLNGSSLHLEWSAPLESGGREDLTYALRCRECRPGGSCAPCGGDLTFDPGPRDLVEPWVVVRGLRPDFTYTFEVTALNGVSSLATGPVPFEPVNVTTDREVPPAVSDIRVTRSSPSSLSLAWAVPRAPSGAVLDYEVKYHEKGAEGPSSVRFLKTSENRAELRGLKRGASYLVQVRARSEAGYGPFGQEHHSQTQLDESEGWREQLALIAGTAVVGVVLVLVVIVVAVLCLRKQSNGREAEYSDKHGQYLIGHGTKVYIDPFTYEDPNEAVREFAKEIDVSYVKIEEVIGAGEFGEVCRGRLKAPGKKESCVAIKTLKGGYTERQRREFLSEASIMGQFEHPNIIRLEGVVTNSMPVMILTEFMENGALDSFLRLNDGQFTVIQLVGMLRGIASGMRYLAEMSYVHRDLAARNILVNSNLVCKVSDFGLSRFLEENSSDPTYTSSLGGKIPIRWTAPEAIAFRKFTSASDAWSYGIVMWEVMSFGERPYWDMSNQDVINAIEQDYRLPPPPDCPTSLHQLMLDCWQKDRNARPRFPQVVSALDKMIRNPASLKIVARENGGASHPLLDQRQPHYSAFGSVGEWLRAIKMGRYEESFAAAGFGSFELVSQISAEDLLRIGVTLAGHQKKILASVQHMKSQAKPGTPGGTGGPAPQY
# ASSAY COMMENT: Kinase panel profiling at 1 µmol/L (MSA or IMAP), percentage inhibition
# Assay type: biochemical
# COND: kinase EPHB4; 1 µmol/L single concentration; read-out: %-inhibition at 1 µmol/L, EPHB4
METRIC NAME: inhibition at 1 µM (%)
Enter your answer as a number in %; do not include the unit.

Form field - read-out: inhibition at 1 µM; system: panel of 255 wild-type kinases (Homo sapiens); submitted item: C[C@H]1Oc2cc(cnc2N)-c2c(nn(C)c2C#N)CN(C)C(=O)c2ccc(F)cc21 43

Notebook: pull reported inhibition at 1 µM for panel of 255 wild-type kinases (Homo sapiens), entry C[C@H](Nc1ncnc2nc[nH]c12)c1cc2cccc(Cl)c2c(=O)n1-c1ccccc1 3.24

Kindly state the measured inhibition at 1 µM obtained for CCn1c(=O)c(-c2cc(NC(=O)Nc3ccccc3)c(F)cc2Br)cc2cnc(NC)cc21 with panel of 255 wild-type kinases (Homo sapiens). 90

Reported inhibition at 1 µM for panel of 255 wild-type kinases (Homo sapiens), given CCN1C(=O)N(c2c(F)c(OC)cc(OC)c2F)Cc2cnc3[nH]c(CN4CCOCC4)cc3c21 ? -3
